Molecular target: T1, Human ST2 (human, UniProt Q01638 19-328, limits assumed)
T1 construct: also called human ST2 protein; Interleukin 1 receptor-like 1
T1 sequence (looked up): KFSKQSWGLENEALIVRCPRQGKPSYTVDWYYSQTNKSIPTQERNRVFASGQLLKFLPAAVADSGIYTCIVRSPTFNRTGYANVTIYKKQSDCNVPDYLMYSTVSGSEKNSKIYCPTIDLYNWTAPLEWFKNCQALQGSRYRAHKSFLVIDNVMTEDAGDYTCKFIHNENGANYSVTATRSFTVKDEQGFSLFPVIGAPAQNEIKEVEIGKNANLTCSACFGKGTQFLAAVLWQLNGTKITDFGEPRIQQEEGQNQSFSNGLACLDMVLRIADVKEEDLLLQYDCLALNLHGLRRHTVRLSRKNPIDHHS
Assay: SPR (Carterra), antibody immobilized, ST2 analyte
PROPERTY_MEASURED: Kd

# BINDER, REPORTED
rows = [
    ("Human ST2 IgG1 Antibody 90 (antibody, V domains shown, IgG1; also called ST2 Antibody 90) VH: QVQLVQSGAEVKKPGSSVKVSCKASGYTFSDFSIHWVRQAPGQGLEWMGGMLPISHIAHYARKFQGRVTITADESTSTAYMELSSLRSEDTAVYYCARGGSSGWFEVWGQGTTVTVSS VL: DIVMTQSPLSLPVTPGEPASISCRSSQSLLHSNGYNYLDWYLQKPGQSPQLLIYAASTLQSGVPDRFSGSGSGTDFTLKISRVEAEDVGVYYCMQGAHWPPTFGQGTKLEIKR", "0.97 µM"),
    ("Human ST2 IgG1 Antibody 72 (antibody, V domains shown, IgG1; also called ST2 Antibody 72) VH: EVQLLESGGGLVQPGGSLRLSCAASGFTFSSYGMSWVRQAPGKGLEWLAVIWSDGGHKYYADSVKGRFTISRDNSKNTLYLQMNSLRAEDTAVYYCAREVRGWFDPWGQGTLVTVSS VL: DIQMTQSPSSLSASVGDRVTITCRASENIGTWLAWYQQKPGKAPKLLIYKASSLDSGVPSRFSGSGSGTDFTLTISSLQPEDFATYYCQQSYSTPYTFGQGTKLEIKR", "0.335 µM"),
    ("Human ST2 IgG1 Antibody 22 (antibody, V domains shown, IgG1; also called ST2 Antibody 22) VH: EVQLLESGGGLVQPGGSLRLSCAASGFKFRTFWMNWVRQAPGKGLEWVSVISNGGDATHYADSVKGRFTISRDNSKNTLYLQMNSLRAEDTAVYYCARVDCSGGSCYLGYWGQGTLVTVSS VL: DIQMTQSPSSLSASVGDRVTITCRASESIGRYLNWYQQKPGKAPKLLIYGTSNLESGVPSRFSGSGSGTDFTLTISSLQPEDFATYYCQQSYSTPPTFGQGTKVEIKR", "0.09 µM"),
    ("Human ST2 IgG1 Antibody 5 (antibody, V domains shown, IgG1; also called ST2 Antibody 5) VH: EVQLLESGGGLVQPGGSLRLSCAASGFTFSSYWMSWVRQAPGKGLEWVSSISSDTTYKYYADSVKGRFTISRDNSKNTLYLQMNSLRAEDTAVYYCAREVDTAMKNWGQGTLVTVSS VL: DIQMTQSPSSLSASVGDRVTITCRASQGIGNDLAWYQQKPGKAPKLLIYAASSLQSGVPSRFSGSGSGTDFTLTISSLQPEDFATYYCQQSYSTPYTFGQGTKVEIKR", "0.19 µM"),
    ("Human ST2 IgG1 Antibody 34 (antibody, V domains shown, IgG1; also called ST2 Antibody 34) VH: QVQLVQSGAEVKKPGASVKVSCKASGQTFTDYAINWVRQAPGQGLEWMGWMNPNSGNTGYAQKFQGRVTMTRDTSTSTVYMELSSLRSEDTAVYYCARETLEQQLPFDYWGQGTLVTVSS VL: DIQMTQSPSSLSASVGDRVTITCRASQSISSWLAWYQQKPGKAPKLLIYAASTLQSGVPSRFSGSGSGTDFTLTISSLQPEDFATYYCQQYYSTLYTFGQGTKVEIKR", "0.109 µM"),
    ("Human ST2 IgG1 Antibody 94 (antibody, V domains shown, IgG1; also called ST2 Antibody 94) VH: QVQLVQSGAEVKKPGSSVKVSCKASGGILNSYAITWVRQAPGQGLEWMGRIIPILGIANYAQKFQGRVTITADESTSTAYMELSSLRSEDTAVYYCVENESGPLFDYWGQGTLVTVSS VL: EIVMTQSPATLSVSPGERATLSCRASQSVYSSYLAWYQQKPGQAPRLLIYGTSSRAAGIPARFSGSGSGTEFTLTISSLQSEDFAVYYCQQYYSTPYTFGQGTKVEIKR", "0.483 µM"),
    ("Human ST2 IgG1 Antibody 83 (antibody, V domains shown, IgG1; also called ST2 Antibody 83) VH: EVQLLESGGGLVKPGGSLRLSCAASGFTFSSYWMSWVRQAPGKGLEWVSAIGTAGDTYYPGSVKGRFTISRDDSKNTLYLQMNSLKTEDTAVYYCAILRRDKVWPFDYWGQGTLVTVSS VL: DIQMTQSPSSLSASVGDRVTITCRASQSISSHLHWYQQKPGKAPKLLIYAASSLQSGVPSRFSGSGSGTDFTLTISSLQPEDFATYYCQQSYSSPVTFGGGTKVEIKR", "0.07 µM"),
    ("Human ST2 IgG1 Antibody 29 (antibody, V domains shown, IgG1; also called ST2 Antibody 29) VH: QVQLVQSGAEVKKPGASVKVSCKASGGTFTGYFIHWVRQAPGQGLEWMGWMNPNSGNTGYAQKFQGRVTMTRDTSTSTVYMELSSLRSEDTAMYYCAREGQGVVPVDYWGQGTLVTVSS VL: DIQMTQSPSSLSASVGDRVTITCRASQSISSWLAWYQQKPGKAPKLLIYDATNLETGVPSRFSGSGSGTDFTLTISSLQPEDFATYYCLQDYNYPLTFGQSTKVEIKR", "0.48 µM"),
    ("Human ST2 IgG1 Antibody 89 (antibody, V domains shown, IgG1; also called ST2 Antibody 89) VH: EVQLLESGGGLVKPGGSLRLSCAASGFTFSSYWMSWVRQAPGKGLEWVSAISGTAINTYYADSVKGRFTISRDDSKNTLYLQMNSLKTEDTAVYYCARVRRDSSGGGAFDIWGQGTMVTVSS VL: DIQMTQSPSSLSASVGDRVTITCRASQGISNNLNWYQQKPGKAPKLLIYAASSLQTGVPSRFSGSGSGTDFTLTISSLQPEDFATYYCQQSYSTPPTFGQGTKVEIKR", "0.102 µM"),
    ("Human ST2 IgG1 Antibody 35 (antibody, V domains shown, IgG1; also called ST2 Antibody 35) VH: QVQLVQSGAEVKKPGASVKVSCKASAYTFTSYGISWLRQAPGQGLEWMGWINPNSGNTGYAHKFQGRVTMTRDTSTSTVYMELSSLRSEDTAVYYCARGGSGWPTWGQGTLVTVSS VL: DIQMTQSPSSLSASVGDRVTITCQASQDISNYLNWYQQKPGKAPKLLIYGASSLQSGVPSRFSGSGSGTDFTLTISSLQPEDFATYYCQQANTFPFTFGPGTKVDIKR", "0.104 µM"),
]
